Below, each of the compounds is paired with its reported PSA, percentage of cell staining value.
system: prostate specific antigen (PSA); experiment: IHC of high MBD breast tissue explants with columnar cell change: PSA; assay type: cell-based, human; conditions: Patient 2 explant, 24 hours; E 5 nM, T 10 nM, G 100 nM, A 25 ng/L [sic]; vehicle 15%
TEST_READOUT: PSA, percentage of cell staining (%)

> print(dat)
                         structure.notation  modifier.sign  experimental.value
1  C[C@](O)(COc1ccc(C#N)cc1)C(=O)Nc1ccc(C#N)c(C(F)(F)F)c1              =                  55
2  C[C@]12CC[C@@H]3c4ccc(O)cc4CC[C@H]3[C@@H]1CC[C@@H]2O              <                   5
3  CC(C)(C#N)c1cc(Cn2cncn2)cc(C(C)(C)C#N)c1              =                  25
4  C[C@]12CC[C@H]3[C@@H](CCC4=CC(=O)CC[C@@]43C)[C@@H]1CC[C@@H]2O              =                  45
